Entry source: ChEMBL document CHEMBL5113415

# experiment-notes: Cytotoxicity against human RD cells infected with EV71 incubated for 3 days by CellTiter 96 luminescent cell viability assay
# Type: toxicity, cell-based
# cond: time 3 day
Reported CC50 at 72 h values for the following molecules.
endpoint-label: CC50 at 72 h (nM)

In [3]: df
Out[3]:
                           structure_smiles  endpoint_label  unit_label  endpoint_result
0  O=C(c1ccc(C(F)(F)F)cc1O)c1[nH]c(Cl)c(Cl)c1-n1c(C(=O)c2ccc(C(F)(F)F)cc2O)cc(Cl)c1Sc1ncccn1    CC50 at 72 h          nM              320
1  O=C(c1ccc(C(F)(F)F)cc1O)c1[nH]c(Cl)c(Cl)c1-n1c(C(=O)c2ccc(C(F)(F)F)cc2O)cc(Cl)c1Sc1cccs1    CC50 at 72 h          nM               80
2  O=C(c1ccc(C(F)(F)F)cc1O)c1[nH]c(Cl)c(Cl)c1-n1c(C(=O)c2ccc(C(F)(F)F)cc2O)cc(Cl)c1SCCO    CC50 at 72 h          nM             1570
3  O=C(c1ccc(C(F)(F)F)cc1O)c1[nH]c(Cl)c(Cl)c1-n1c(C(=O)c2ccc(C(F)(F)F)cc2O)cc(Cl)c1SCc1ncccn1    CC50 at 72 h          nM              560
4  O=C(c1ccc(C(F)(F)F)cc1O)c1[nH]c(Cl)c(Cl)c1-n1c(C(=O)c2ccc(C(F)(F)F)cc2O)cc(Cl)c1SCc1cccnc1    CC50 at 72 h          nM              570
5  O=C(c1ccc(C(F)(F)F)cc1O)c1[nH]c(Cl)c(Cl)c1-n1c(C(=O)c2ccc(C(F)(F)F)cc2O)cc(Cl)c1Cl    CC50 at 72 h          nM              120
6  O=C(c1ccc(C(F)(F)F)cc1O)c1[nH]c(Cl)c(Cl)c1-n1c(C(=O)c2ccc(C(F)(F)F)cc2O)cc(Cl)c1Sc1nc2ccccc2o1    CC50 at 72 h          nM              920
7  O=C(c1ccc(C(F)(F)F)cc1O)c1[nH]c(Cl)c(Cl)c1-n1c(C(=O)c2ccc(C(F)(F)F)cc2O)cc(Cl)c1SCCc1ccccn1    CC50 at 72 h          nM              270

----------
# experiment-notes: Selectivity index, ratio of CC50 for […] to IC50 for JEV-SA14 infected in […]
# Format: toxicity, cell-based
# cond: read-out: Ratio CC50/IC50
Reported selectivity ratio values for the following compounds.
endpoint-label: selectivity ratio

                           structure_smiles  endpoint_result
0  CN(C)CCn1nnnc1Sc1c(Cl)cc(C(=O)c2ccc(C(F)(F)F)cc2O)n1-c1c(C(=O)c2ccc(C(F)(F)F)cc2O)[nH]c(Cl)c1Cl             1.96
1  O=C(c1ccc(C(F)(F)F)cc1O)c1[nH]c(Cl)c(Cl)c1-n1c(C(=O)c2ccc(C(F)(F)F)cc2O)cc(Cl)c1Sc1ccccn1              1.1
2  O=C(c1ccc(C(F)(F)F)cc1O)c1[nH]c(Cl)c(Cl)c1-n1c(C(=O)c2ccc(C(F)(F)F)cc2O)cc(Cl)c1SCCc1ccccn1             0.98
3  Cc1nnc(Sc2c(Cl)cc(C(=O)c3ccc(C(F)(F)F)cc3O)n2-c2c(C(=O)c3ccc(C(F)(F)F)cc3O)[nH]c(Cl)c2Cl)s1             1.85
4  O=C(c1ccc(C(F)(F)F)cc1O)c1[nH]c(Cl)c(Cl)c1-n1c(C(=O)c2ccc(C(F)(F)F)cc2O)cc(Cl)c1Sc1ncc[nH]1             2.98
5  O=C(c1ccc(C(F)(F)F)cc1O)c1[nH]c(Cl)c(Cl)c1-n1c(C(=O)c2ccc(C(F)(F)F)cc2O)cc(Cl)c1Sc1nc2cccnc2[nH]1             0.79
